# Test system: NCI/ADR-RES
# EXPERIMENT_NOTES: NCI tumour cell line growth inhibition, 48 h
Calls of active or inactive are those of the source. Cut-off read from the data, not from the text of the source: active = GI50 up to about 1.1 µM and inactive = higher.
Permitted responses: 1 (yes) = active, 0 (no) = inactive

# lookup: test call for CNc1ncnc(Sc2nc(N)nc3[nH]cnc23)c1[N+](=O)[O-]
1 (yes)

I would be grateful if you could indicate the recorded call for COc1cc(/N=N/c2cccc(S(N)(=O)=O)c2)c2ccccc2c1N .
0 (no)

Entry O=C(CN1CCOCC1)CC(O)(C(F)(F)F)C(F)(F)F : call = ?
0 (no)

Look up the recorded call for O=C1OC(c2ccccc2)=N/C1=C\c1cccnc1 in this test.
0 (no)

Identify the outcome logged in this assay for the compound shown: CCN(CC)CCn1c(C(C)(C)C)nc2ccccc21
0 (no)

Please let me know the test result on file for Clc1cccc(-c2sc(-c3cccs3)cc2Cc2cccs2)c1 .
0 (no)

Answer briefly: the call reported for Oc1cc(Cc2ccccc2)c(Cc2ccccc2)cc1O in this assay.
0 (no)

What classification did COc1cccc(C(C#N)NNC(=O)c2c(Cl)c(Cl)c(Cl)c(Cl)c2-c2nc3cc(C(=O)c4ccccc4)ccc3[nH]2)c1O (stereo unspecified) end up with in this test?
0 (no)

Dear all, I need the recorded test outcome for CCOC(=O)C1(C(=O)OCC)C[C@H]2CON=C2[C@@H]1c1ccc(C(F)(F)F)cc1 , thank you.
0 (no)

Tell me the assay call for N#CCCN(CCC#N)c1ccc(/C=C2\N=C(c3ccccc3)N(c3ccccc3)C2=O)cc1 please.
0 (no)

Tell me the assay call for CCOC(OCC)[C@@H]1C[C@@H]2N(O[C@H](OC3CCCC3(c3ccccc3)c3ccccc3)[C@H](OC(C)=O)[C@@]2(CC)Cc2ccc(OC)c(OC)c2)O1 (stereo partly specified) please.
0 (no)

Assay outcome for COc1cc(S(=O)(=O)Nc2ccc(-c3csc(/N=C\c4ccccc4O)n3)cc2)ccc1Cl : what was it?
0 (no)

// outcome(item) with item = CC(C)CC(NC(=O)C(COc1ccc([N+](=O)[O-])cc1)Cc1ccccc1)C(=O)Nc1ccccc1 (stereo unspecified)
0 (no)

Recorded test outcome, item COc1ccccc1C#C/C=C\C#Cc1ccccc1C#N
0 (no)

Any idea what this test logged for Cc1ccc2[nH]/c(=N/S(=O)(=O)c3cc(C)c(Cl)cc3S)[nH]c2c1 ?
0 (no)

Please indicate how the test categorized COC(=O)c1c2c(cc3c1CC1(Cc4ccc(C(C)=O)cc4C1)C3)CCC2 (stereo unspecified) .
0 (no)

Test call, this compound: COc1ccc(NC(=S)c2ccoc2C)cc1CC(=O)OC(C)C
0 (no)

Recorded call for CC(CSC(=N)N)C(N)=O (stereo unspecified) ?
0 (no)

Per the records of this test, what outcome belongs to O=C1NNC2(C(=O)N1)c1ccccc1-c1ccccc12 ?
0 (no)

For Cc1cccc2c1CC1(C2)Cc2c(C)cccc2C1=O (stereo unspecified) , which call appears in the assay record?
0 (no)

Assay outcome for Cc1cccc(N2CCN(S(=O)(=O)c3ccc(Cl)cc3)C2=N)c1C : what was it?
0 (no)

----------
# Test system: HOP-92
# EXPERIMENT_NOTES: NCI tumour cell line growth inhibition, 48 h
The source made the active and inactive calls. Cut-off read from the data, not from the text of the source: active = GI50 up to about 1.1 µM and inactive = higher.
RECORDED_ENDPOINT: GI50

For HOP-92, provide GI50 of Cc1n(CC(C)C)c2c([n+]1C)C(=O)c1ccccc1C2=O please.
0.641 µM (active)

Form field - read-out: GI50; system: HOP-92; submitted item: COc1cc2cc(C(=O)N3CC(CCl)c4c3cc(N)c3ccccc43)[nH]c2c(OC)c1OC (stereo not given)
< 0.01 µM (active)

Request: GI50, test system HOP-92, entry CCc1cccc(C)c1NC(=O)CCc1nnc(S)[nH]1
> 100 µM (inactive)

Value wanted: GI50 (HOP-92) of entry COc1ccccc1C#C/C=C\C#Cc1ccccc1C#N
31.7 µM (inactive)

# returns recorded GI50 (system: HOP-92) for CCCCCCCCCCCCCCCCCCCCCCC(=O)N[C@H]1CCc2cc(OC)c(OC)c(OC)c2-c2ccc(SC)c(=O)cc21
34.4 µM (inactive)

Find GI50 (HOP-92) for the entry CC(C)=CCC[C@@H](C)C1=C(O)C(=O)C(C)=C(c2c(I)c(=O)n(C)c(=O)n2C)C1=O
> 100 µM (inactive)

// map O=C1NNC2(C(=O)N1)c1ccccc1-c1ccccc12 to recorded GI50 (system: HOP-92)
> 10 µM (inactive)

What reported GI50 corresponds to CC(C)(C)n1c(=O)n2c(-c3ccccc3)c(-c3ccccc3)n2c1=O on HOP-92?
> 100 µM (inactive)

// lookup GI50 | system=HOP-92 | key= COC(=O)[C@]12CSC[C@H]1C[C@H](c1ccc(N(C)C)cc1)N2
> 100 µM (inactive)

Param readout = GI50; param system = HOP-92; param query = CCOP(=O)(OCC)C(c1ccc(F)cc1)N(C(=O)NC(F)(F)F)c1cccc(C(F)(F)F)c1 (stereo not given) ; response: value
33.2 µM (inactive)

----------
# Test system: LXFL 529
# EXPERIMENT_NOTES: NCI tumour cell line growth inhibition, 48 h
Active and inactive are the calls of the source. No stated cut-off is given here; in the data, active = GI50 up to about 1.1 µM and inactive = higher.
Could you please pick one outcome from this set? label 1 for active, label 0 for inactive

Query: recorded result category for Cc1nnc(N/N=C2\C(=O)Nc3ccccc32)n1N in this test
label 0

Could you kindly confirm the outcome this assay logged for CC(=O)OCC1OC(N=[N+]=[N-])C(OC(C)=O)C(OC(C)=O)C1OC1OC(COC(C)=O)C(OC(C)=O)C(OC(C)=O)C1OC(C)=O (centres undefined) ?
label 0

How was CC[C@@]1(O)C[C@H](OC2CC(N(C)C)C(OC3CC(O)C(OC4CCC(=O)C(C)O4)C(C)O3)C(C)O2)c2c(cc3c(c2O)C(=O)c2c(O)cccc2C3=O)[C@H]1C(=O)OC (some centres undefined) classified in this test?
label 1

What classification did CN1CCCNCCN(CCc2ccccn2)CCCN(C)CC1 end up with in this test?
label 0

----------
# Tested on: HL-60
# EXPERIMENT_NOTES: NCI tumour cell line growth inhibition, 48 h
Active and inactive are the calls of the source. Rule as the data show it: active = GI50 up to about 1.1 µM and inactive = higher.
API: response.call in 1 = active, -1 = inactive

Which outcome did this test record for the compound CCOC(=O)CCC(NC(=O)c1ccc(NCc2ccc3nc(OC)c(OC)nc3c2)c2ccccc12)C(=O)OCC (stereo not given) ?
1

Identify the outcome logged in this assay for the compound shown: CCOc1nc(OCC)nc(-c2cccn2-c2ccccc2)n1
-1

Please state the recorded outcome for this compound: CC(=O)O/N=C(Cl)/C(Cl)=N/OC(C)=O
-1

Name the outcome recorded for O=C(NCCCNCCCNC(=O)c1cc(-c2ccccc2)nc2ccccc12)c1cc(-c2ccccc2)nc2ccccc12 in the assay.
-1

Hi, do you know how CC(=O)N(C(=O)CC(=O)N1N=C(c2ccccc2)C(/N=N/c2ccccc2[N+](=O)[O-])C1=O)c1ccc(Cl)cc1 (stereo not given) came out in this test?
-1

# outcome recorded in this test, key = O=C(O)CCN1CCN(CCC(=O)O)CCN(CCC(=O)O)CC1
-1

Lab log entry: c1ccc(-c2cc(-c3ccccc3)nc(-c3ccncc3)c2)cc1 — outcome as called in the assay?
-1

// return assay outcome for O=C1C(Cl)=C(Cl)C(=O)N1c1ccccc1Cl
-1

Could you kindly confirm the outcome this assay logged for COc1cc(OC)c(/C=C/c2cnc3ccccc3n2)c(OC)c1 ?
-1

// outcome(item) with item = CC(C)=CCC[C@@H](C)C1=C(O)C(=O)C(C)=C(c2c(I)c(=O)n(C)c(=O)n2C)C1=O
-1

----------
# System: SK-MEL-28
# EXPERIMENT_NOTES: NCI tumour cell line growth inhibition, 48 h
Calls of active or inactive are those of the source. Cut-off read from the data, not from the text of the source: active = GI50 up to about 1.1 µM and inactive = higher.
RECORDED_ENDPOINT: GI50

Query: GI50; subject: CC(CSC(=N)N)C(N)=O (stereo not given)
> 100 µM (inactive)

Fill blank: measured GI50 of the compound COc1ccc(-c2cc(-c3ccc(Nc4ccnc5cc(Cl)ccc45)cc3)nc(N)c2C#N)c2ccccc12 is ____.
> 100 µM (inactive)

Please report the recorded GI50 for Cc1nc(-n2nc(-c3ccccc3)cc2-c2ccccc2)sc1C(=O)/C=C/c1ccccc1 .
> 100 µM (inactive)

// lookup GI50 for C=C1C(=O)O[C@H]2[C@H](OC(C)=O)[C@@H](C)CCC/C(C)=C/CC[C@@]3(C)O[C@@H]3C[C@@H]12
4.72 µM (inactive)

Requested field: GI50. Item: C1C2CC3CC1CC(Nc1nc(NC45CC6CC(CC(C6)C4)C5)nc(NC45CC6CC(CC(C6)C4)C5)n1)(C2)C3
> 31.1 µM (inactive)

I'd like to know its GI50. The compound in question is CCOC(=O)C1C(c2cc(OC)c(O)c(OC)c2)c2cc3c(cc2OC1(C)O)OCO3 (stereo not given)
60.7 µM (inactive)

GI50 lookup needed for C1=C2C3=[N+](CCCC3)CC2Cc2ccsc21 (stereo not given) , thanks.
> 100 µM (inactive)

// lookup GI50 for O=C1Nc2ccccc2NC1C1OC(c2ccccc2)=CC1=O (stereo not given)
> 100 µM (inactive)

Bench note: what GI50 did C/C(=N\NS(=O)(=O)c1ccc(C)cc1)C(CN(C)C)C(c1ccccc1)c1c(O)c2ccccc2oc1=O (stereo not given) show?
> 100 µM (inactive)

What GI50 value was documented for this compound, CCCCCCCCC1=CCC(CN(C)C)C1=O (stereo not given) ?
20.1 µM (inactive)
